# assayed_system: Angiotensin II receptor (Bos taurus)
# Construct: carried out on partly purified membrane fractions of bovine AC with radioactive angiotensin II
# Sequence (P25104 1-359): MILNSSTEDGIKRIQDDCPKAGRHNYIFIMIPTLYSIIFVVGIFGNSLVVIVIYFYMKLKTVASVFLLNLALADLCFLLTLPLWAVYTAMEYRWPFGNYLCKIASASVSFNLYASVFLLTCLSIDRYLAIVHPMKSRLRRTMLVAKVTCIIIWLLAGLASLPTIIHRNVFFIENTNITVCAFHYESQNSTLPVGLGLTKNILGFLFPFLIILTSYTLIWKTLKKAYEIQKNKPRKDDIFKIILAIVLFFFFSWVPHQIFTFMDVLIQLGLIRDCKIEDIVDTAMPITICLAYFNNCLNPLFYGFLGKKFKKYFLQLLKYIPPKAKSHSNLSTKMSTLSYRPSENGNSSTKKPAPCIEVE
# experiment_summary: Interaction with the angiotensin II receptor on membrane fractions of the adrenal cortex (cattle), 3H-angiotensin II bonding
# applied_conditions: bovine adrenal cortex membranes; 3H-angiotensin II (3-5 nM); 60 minutes at room temperature
pKi: −log10 of the molar value.
# pKi listing for each entry below

compound	pKi
CCCCc1nc(Cl)c(C(=O)O)n1Cc1ccc(S(=O)(=O)N2CCCCC2C(=O)OC(C)(C)C)cc1Cl (centres unmarked)	6.70
CCCCc1nc(Cl)c(C(=O)O)n1Cc1ccc(S(=O)(=O)N2CCC[C@H]2C(=O)O)cc1	6.40
